tested on: HCC-2998 colon; assay: NCI tumour cell line growth inhibition, 48 h
Please use yes (1) whenever TGI is not below 30 µM, and no (0) whenever it is.

Tell me whether TGI is at least 30 µM here: COc1ccccc1N=N/C(=N\NC(=O)c1ccc(C)cc1)c1ccc(N(CCC#N)CCC#N)cc1C
yes (1)

Decide: TGI of N#Cc1c(N)nc(N)nc1N[C@H](c1nc2c(F)ccc(Cl)c2c(=O)n1-c1cccnc1)C1CC1 >= 30 µM?
no (0)

Dear colleague, could you confirm whether Clc1ccc2nc(-c3ccccc3)nc(Cl)c2c1 has TGI at or above 30 µM?
yes (1)

Hi team, for COC(=O)N/N=C(/CCC(=O)Nc1ccc(C)c(C)c1)CC(=O)C(C)(C)C , is the recorded TGI at or above 30 µM?
yes (1)

Say whether N#Cc1c(O)cc(=O)n2c1[nH]c1ccccc12 shows TGI of 30 µM or more.
yes (1)

***
Please tell me: is the molecule CC(=O)[CH-]C(=O)c1ccccc1.CC(=O)[CH-]C(=O)c1ccccc1.Cl.[O-]c1ccccn1.[O-]c1ccccn1.[Ti+4] at or over 30 µM in terms of TGI?
yes (1)

Does the reported TGI for Cc1ccc(/C=C2\CCCC(CN(C)C)C2=O)cc1 (stereo not given) fall at or above the 30 µM mark?
no (0)

Would you say COc1cc(-c2n/c(=C\c3c(O)[nH]c4cc(Cl)ccc34)cc3c2=Nc2ccccc2-3)cc(OC)c1OC shows TGI at minimum 30 µM?
yes (1)

Is TGI for C[C@]1(Cn2ccnn2)C(C(=O)O)N2C(=O)CC2S1(=O)=O (stereo not given in full) at or above 30 µM?
yes (1)

Record CCOC(=O)c1nc2ccccc2nc1Oc1cc(OC)c(OC)c(OC)c1 ; criterion: TGI no lower than 30 µM. Met?
yes (1)

Answer whether TGI of O=C(O)CN1CCN(CC(=O)N2CCN(C(=O)OCc3ccccc3)CC2)CCN(CC(=O)O)CCN(CC(=O)N2CCN(C(=O)OCc3ccccc3)CC2)CC1 is greater than or equal to 30 µM.
yes (1)

Determine whether measured TGI meets or exceeds 30 µM for O=[N+]([O-])/C(C(Cl)=C(Cl)Cl)=C(\Nc1ccccc1)n1nnc2ccccc21
yes (1)

Has COc1c(-c2ccc(O)c(O)c2)oc2c(O)c(O)cc(O)c2c1=O a recorded TGI greater than or equal to 30 µM?
yes (1)

Dear colleague, could you confirm whether NC(Cc1ccc(S(=O)(=O)O)cc1)C(=O)NC(Cc1ccc(S(=O)(=O)O)cc1)C(=O)NC(Cc1ccc(S(=O)(=O)O)cc1)C(=O)O (stereo not given) has TGI at or above 30 µM?
yes (1)

Say whether CC12CO[C@@](C)(CC(S(=O)(=O)c3ccccc3)C1)O2 (stereo not given in full) shows TGI of 30 µM or more.
yes (1)

# check: TGI of CN(C)CCn1c(=O)c2ccc3c4c(nn3CCN(C)C)c3cc([N+](=O)[O-])ccc3n(c1=O)c24 is greater than or equal to 30 µM
no (0)

----------
tested on: NCI/ADR-RES ovarian; assay: NCI tumour cell line growth inhibition, 48 h
Where a SMILES comes first, the peptide text is derived from it. [ ]: non-standard residue; d: D form. The star is where a group is joined. ξ: configuration not given here. ξF = NC(Cc1ccccc1)C(=O)O; Cbz = O=C(OCc1ccccc1)*; Aib = CC(C)(N)C(=O)O
readout label: TGI

Consider the reported TGI for these compounds:
Would you mind telling me what TGI value was observed for C=C(C)C(O)C(O)C[C@@H](C)C1CC[C@]23C[C@]12CCC1[C@@]2(C)CCC(OC(C)=O)C(C)(C)C2CC(OC2OC(CO)C(O)C(O)C2O)[C@]13C (stereo partly specified) ?
> 100 µM

Report TGI for O=C(CN1CCOCC1)c1ccc2c(c1)oc(=O)n2CCN1CCCC1 please.
> 100 µM

Quick one: TGI of CN(C)CC(C(=O)Cc1ccccc1)c1ccccc1 (stereo unspecified) ?
23.9 µM

What measured TGI goes with COC(=O)C(C)(C)NC(=O)C(Cc1ccccc1)NC(=O)C(C)(C)NC(=O)OCc1ccccc1 (stereo unspecified) (Cbz-[Aib]-[ξF]-[Aib]-OMe) ?
> 100 µM

Report TGI for O=C(CC(=O)N1N=C(N(c2ccccc2)c2ccccc2)CC1c1ccccc1)Nc1ccc(Cl)cc1 (stereo unspecified) please.
> 100 µM

What value of TGI has been reported for the following compound? CCOc1ccc(N=NS(=O)(=O)O)cc1
> 100 µM

For the compound CCC(=O)Nc1ccccc1C#C/C=C\C#Cc1ccccc1C(F)(F)F , what TGI is on record?
9.95 µM

# get_value(readout='TGI', item= O=C(O)CCc1c2ccc(=O)c(O)c-2oc2c(O)c(O)ccc12 )
> 100 µM

Look at this compound and give its reported TGI. CCCCNC(=O)c1cc(NCc2cc(O)ccc2O)ccc1O
> 100 µM

Sample CCOC(=O)c1c(-c2ccc(Br)cc2)ccn1C — what was its TGI?
> 10 µM

---
Which measured TGI value corresponds to COc1cc(-c2cc(/C=C/C(=O)c3ccc(Cl)c(Cl)c3)[nH]n2)cc(OC)c1OC ?
> 100 µM

// query TGI value for entry NCCOc1ccccc1/C=C1\c2ccccc2-c2ccc([N+](=O)[O-])cc21
3.54 µM

Given the entry C[C@]12CC[C@H]3[C@@H](C[C@@H]4SC(Nc5ccccc5)=N[C@@]45CC(O)CC[C@]35C)[C@@H]1CCC2O (stereo partly specified) , report its measured TGI.
91.7 µM
